system.under.test: SMARCA4 (Homo sapiens)
Construct: SMARCA4-HiBiT knock-in Hela monoclonal cell (CS3023226); host or cells: HeLa monoclonal cells with heterozygous HiBiT knock-in at the endogenous SMARCA4 locus
Sequence (P51532 whole entry): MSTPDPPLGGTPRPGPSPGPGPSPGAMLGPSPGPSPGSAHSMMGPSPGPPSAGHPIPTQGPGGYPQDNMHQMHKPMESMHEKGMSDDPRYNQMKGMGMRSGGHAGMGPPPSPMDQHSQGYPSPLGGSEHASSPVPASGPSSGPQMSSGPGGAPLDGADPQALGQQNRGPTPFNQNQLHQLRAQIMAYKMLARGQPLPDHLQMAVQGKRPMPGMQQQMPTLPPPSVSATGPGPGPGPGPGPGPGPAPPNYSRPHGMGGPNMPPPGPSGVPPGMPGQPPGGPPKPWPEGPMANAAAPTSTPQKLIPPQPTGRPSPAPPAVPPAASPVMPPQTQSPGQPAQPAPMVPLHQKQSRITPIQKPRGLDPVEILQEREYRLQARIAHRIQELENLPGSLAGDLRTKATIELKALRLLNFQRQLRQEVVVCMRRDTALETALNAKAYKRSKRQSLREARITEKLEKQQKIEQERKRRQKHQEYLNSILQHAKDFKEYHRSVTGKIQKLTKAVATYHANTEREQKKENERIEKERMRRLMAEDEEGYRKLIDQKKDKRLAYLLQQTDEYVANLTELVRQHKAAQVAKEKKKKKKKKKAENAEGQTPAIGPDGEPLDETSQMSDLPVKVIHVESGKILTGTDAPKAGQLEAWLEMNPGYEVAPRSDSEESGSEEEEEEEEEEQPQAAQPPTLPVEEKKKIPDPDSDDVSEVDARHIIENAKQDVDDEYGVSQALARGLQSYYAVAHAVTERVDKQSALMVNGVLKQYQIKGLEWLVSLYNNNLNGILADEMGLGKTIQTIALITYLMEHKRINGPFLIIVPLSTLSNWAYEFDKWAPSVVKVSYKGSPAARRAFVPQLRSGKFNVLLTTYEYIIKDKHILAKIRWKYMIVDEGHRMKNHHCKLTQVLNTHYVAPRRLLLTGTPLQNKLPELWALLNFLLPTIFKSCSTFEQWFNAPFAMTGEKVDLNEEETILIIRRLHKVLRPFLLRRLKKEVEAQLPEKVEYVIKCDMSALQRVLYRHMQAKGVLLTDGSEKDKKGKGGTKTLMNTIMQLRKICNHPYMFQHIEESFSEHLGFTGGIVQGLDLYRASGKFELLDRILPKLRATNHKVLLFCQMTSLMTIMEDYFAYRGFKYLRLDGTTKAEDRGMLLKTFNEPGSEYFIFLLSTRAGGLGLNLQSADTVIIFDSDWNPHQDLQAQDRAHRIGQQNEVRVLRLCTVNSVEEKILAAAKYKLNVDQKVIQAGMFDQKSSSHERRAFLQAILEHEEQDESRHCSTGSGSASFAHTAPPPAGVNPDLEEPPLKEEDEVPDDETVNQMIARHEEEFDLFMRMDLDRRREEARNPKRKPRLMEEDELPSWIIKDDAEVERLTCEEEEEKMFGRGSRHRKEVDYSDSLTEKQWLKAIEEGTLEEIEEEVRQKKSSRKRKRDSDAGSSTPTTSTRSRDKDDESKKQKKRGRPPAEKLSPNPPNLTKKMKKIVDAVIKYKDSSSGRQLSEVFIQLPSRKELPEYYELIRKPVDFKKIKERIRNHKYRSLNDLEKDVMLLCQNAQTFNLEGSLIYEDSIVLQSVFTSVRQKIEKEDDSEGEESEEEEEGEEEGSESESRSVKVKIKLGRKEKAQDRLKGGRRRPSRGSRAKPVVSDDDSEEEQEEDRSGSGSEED
test.method.notes: SMARCA4 HiBiT degradation assay in HeLa cells
Type: cell-based
measurement.conditions: 18 hours, highest concentration 10 μM
Method: SMARCA2 HiBiT and SMARCA4 HiBiT Degradation Assay HiBiT peptide knock-in of SMARCA2 in LgBiT expressing HEK293T cells was performed by CRISPR-mediated tagging system as described Promega. […] SMARCA2-HiBiT knock-in Hela monoclonal cell (CS302366) and SMARCA4-HiBiT knock-in Hela monoclonal cell (CS3023226) were purchased from Promega. SMARCA2 HiBiT and SMARCA4 HiBiT Degradation Assay in HeLa Cells […]
quantity.name: Dmax

Form field Dmax, entry CC[C@@]12CNc3nnc(-c4cc(F)cc(F)c4O)cc3N1C[C@H](Oc1ccc(CN3CCN(c4ccc5c(c4)C(=O)N(C4CCC(=O)NC4=O)C5)CC3)cn1)C2 (some centres unmarked) : > 75%

get_value(item= Cc1cccc(-c2cc3c(nn2)NC[C@H]2C[C@@H](Oc4ccc(CN5CCN(c6ccc7c(c6)C(=O)N(C6CCC(=O)NC6=O)C7)CC5)cc4)CN32)c1O (some centres unmarked) , readout=Dmax) returns 50 to 75%

Value of measured Dmax for the entry CC[C@]12CNc3nnc(-c4cccc(F)c4O)cc3N1C[C@H](Oc1cnc(CN3CCN(c4ccc5c(c4)CN([C@H]4CCC(=O)NC4=O)C5=O)CC3)c(C)c1)C2 : > 75%

For this compound ( CC[C@]12CNc3nnc(-c4cccc(C)c4O)cc3N1C[C@H](Oc1cnc(CN3CCC(c4ccc5c(c4)C(=O)N([C@H]4CCC(=O)NC4=O)C5)CC3)c(C)c1)C2 ), measured Dmax is 50 to 75%

// recorded Dmax for O=C1CCC(N2Cc3ccc(N4CCN(Cc5cnc(O[C@H]6CN7c8cc(-c9cccc(F)c9O)nnc8NC[C@@]7(C(F)F)C6)c(Cl)c5)CC4)cc3C2=O)C(=O)N1 (some centres unmarked) : 50 to 75%

These entries and their values trace back to patent US20240165244A1.
